The reported measurements were obtained from PubChem BioAssay (NCI).

Would you mind telling me the reported TGI of each entry?
- Tested on: K-562 leukemia
- testProtocol: NCI tumour cell line growth inhibition, 48 h

Param readout = TGI; param system = K-562 leukemia; param query = O=C1c2ccccc2C2(O)N(c3ccccc3)C(=S)N(c3ccccc3)C12O (stereo not given) ; response: value
> 100 µM

Request - read-out TGI | tested on K-562 leukemia | compound CC1OC(OC2C(OC(=O)[C@]34CCC(C)(C)C[C@H]3C3=CC[C@@H]5[C@@]6(C)CC[C@H](OC7OC(CO)C(O)C(O)C7OC7OC(CO)C(O)C(O)C7O)C(C)(C)[C@@H]6CC[C@@]5(C)[C@]3(C)CC4)OCC(O)C2O)C(O)C(O)C1OC1OCC(O)C(O)C1O (stereo not given in full)
27.6 µM

Notebook: pull reported TGI for K-562 leukemia, entry "O=C(/C=C/c1ccccc1)CCN1CCCCC1"
> 100 µM

Given the entry CC(=O)NC(CCCNC(=O)OCc1ccccc1)C(=O)NCc1ccccc1 (stereo not given) , what TGI was observed with K-562 leukemia?
> 100 µM

What TGI appears in the records for this compound with K-562 leukemia? "CN(C)CCNC(=O)c1cccc2c1nc(-c1cccnc1)c1ccccc12"
65.4 µM

Form field - read-out: TGI; system: K-562 leukemia; submitted item: C/C=C(/CCC1NCCc2c1[nH]c1ccccc21)[Si](C)(C)C (stereo not given)
> 100 µM

Form field - read-out: TGI; system: K-562 leukemia; submitted item: "NS(=O)(=O)c1cc2c(cc1Cl)NCNS2(=O)=O"
> 100 µM

What measured TGI is associated with "COC(=O)c1ccc(CCC2=CC(=O)C=CC2=O)cc1" on K-562 leukemia?
8.9 µM

What TGI appears in the records for this compound with K-562 leukemia? "CC1(C)CC(=O)C(C(=O)Nc2cccs2)=C(O)C1"
> 100 µM

Recall the recorded TGI for "CCOC(=O)c1c(Cl)c2c(n1Cc1ccccc1)-c1oncc1CCC2" with K-562 leukemia and state it.
> 100 µM

Requested read-out TGI, target or system K-562 leukemia, entry "COc1cc(S(=O)(=O)Nc2nc(-c3ccc(N=Cc4ccccc4O)cc3)cs2)ccc1Cl"
> 100 µM

API: value(readout=TGI, system=K-562 leukemia) for record "O=C(Nc1ccc(Cl)cc1Cl)C1C(=O)OC2(CCCCC2)OC1=O"
43.1 µM

# returns recorded TGI (system: K-562 leukemia) for "C=C1CC[C@@H]2[C@](C)(COC(=O)CCC(=O)OC)CCC[C@@]2(C)[C@@H]1CCC1=CC(=O)OC1"
> 100 µM

Can you look up TGI on K-562 leukemia for "Cc1cccc(Oc2ccc(Nc3ncnc4ccc(NC(=O)CN(C)C)cc34)cc2Cl)c1" ?
4.63 µM

Look up TGI with K-562 leukemia for this compound: CN(C)CCCC1(c2ccc(F)cc2)OCc2cc(-c3csc4ccccc34)ccc21 (stereo not given)
3.45 µM

Record lookup: for K-562 leukemia, what TGI belongs to "NCCCCNOCCCN" ?
> 100 µM

API: value(readout= TGI, system= K-562 leukemia, query= "CC(C)(C)c1ccc(OCCOCCOc2ccc(C(C)(C)C)cc2S(N)(=O)=O)c(S(N)(=O)=O)c1" )
> 100 µM

Requested read-out TGI, target or system K-562 leukemia, entry "CC(=O)O[C@H]([C@H](OC(C)=O)[C@H](C)OC(C)=O)[C@@H](/C=C/[C@H]1CC=CC(=O)O1)OC(C)=O"
> 100 µM

Requested read-out TGI, target or system K-562 leukemia, entry "Cc1cnc2[nH]c(-c3cccc4ccccc34)cc(=O)c2c1"
> 100 µM

Write down the reported TGI of O=C(O)CCC(NC(=O)c1ccc(Nc2nc3ccc(C(F)(F)F)cc3nc2C(=O)O)cc1)C(=O)O (stereo not given) , test system: K-562 leukemia.
> 100 µM
